System: Mycobacterium tuberculosis mc^26206 (WT)
Assay type: cell-based
Quantity Measured: anti-tuberculosis activity against wild type Mtb (in words)

O=c1ccc2nc3ccc(OCCO)cc3oc-2c1 [Compound 6s, 7‐(2‐Hydroxyethoxy)‐3H‐phenoxazin‐3‐one] = completely inactive
O=c1ccc2nc3ccc(OCC4(CO)COC4)cc3oc-2c1 = completely inactive
